Data origin, for the record: paper PMC10247892

Tested on: Vero E6 cells
ASSAY_CONDITIONS: uninfected Vero E6 cells, 3 days
# First cytotoxic conc. >= 100 µM gives y, anything below gives n

Item CC(C)[C@@H]1NC(=O)[C@H](C)OC(=O)[C@@H](C(C)C)NC(=O)[C@@H](C(C)C)OC(=O)[C@H](C(C)C)NC(=O)[C@H](C)OC(=O)[C@@H](C(C)C)NC(=O)[C@@H](C(C)C)OC(=O)[C@H](C(C)C)NC(=O)[C@H](C)OC(=O)[C@@H](C(C)C)NC(=O)[C@@H](C(C)C)OC1=O [Valinomycin] with First cytotoxic conc. of 100 µM or above?
n

Please tell me: is the molecule COC[C@H]1OC(=O)c2coc3c2[C@@]1(C)C1=C(C3=O)[C@@H]2CCC(=O)[C@@]2(C)C[C@H]1OC(C)=O [Wortmannin] at or over 100 µM in terms of First cytotoxic conc.?
n

Entry COc1cc(-n2c(=S)[nH]c3ccccc3c2=O)c(Cl)cc1Cl [Mdivi-1] : is its First cytotoxic conc. no less than 100 µM?
n

Textbook exercise: given the entry CC1=CCC(=C(C)C)CC1 [Terpinolene] , state whether its First cytotoxic conc. is greater than or equal to 100 µM.
y

---

PROTOCOL_TEXT: Cytotoxicity assay
Format: cell-based
ASSAY_CONDITIONS: human, MRC-5 cells
Kindly supply the reported CC50 at 24 h values for the records listed here.
Write the value in µM as a bare number.

Which value of CC50 at 24 h has been reported for "CC(=O)Oc1ccccc1C(=O)O" in the records?
1100

So what's the measured CC50 at 24 h for this one? C=C1CC[C@H]2C(=C)CC[C@H]3C(=C)C(=O)O[C@@H]3[C@@H]12 [Dehydrocostus lactone]
39.1

Fill blank: measured CC50 at 24 h of the compound "CC1(C)CC[C@]2(C(=O)O)CC[C@]3(C)C(=CC[C@@H]4[C@@]5(C)CC[C@H](O)C(C)(C)[C@@H]5CC[C@]43C)[C@@H]2C1" is ____.
25200

Item C=C1C2CCC(C2)C1(C)C (centres unmarked) has what recorded CC50 at 24 h?
72000

State the recorded CC50 at 24 h for this entry: CC(O)COC[C@H]1O[C@@H]2O[C@H]3[C@H](O)[C@@H](O)[C@@H](O[C@H]4[C@H](O)[C@@H](O)[C@@H](O[C@H]5[C@H](O)[C@@H](O)[C@@H](O[C@H]6[C@H](O)[C@@H](O)[C@@H](O[C@H]7[C@H](O)[C@@H](O)[C@@H](O[C@H]8[C@H](O)[C@@H](O)[C@@H](O[C@H]1[C@H](O)[C@H]2O)O[C@@H]8COCC(C)O)O[C@@H]7COCC(C)O)O[C@@H]6COCC(C)O)O[C@@H]5COCC(C)O)O[C@@H]4COCC(C)O)O[C@@H]3COCC(C)O (stereo partly drawn) [HβCD, hydroxypropyl-β-cyclodextrin]
43600

Endpoint output: CC50 at 24 h of "CC(C)[C@@H]1NC(=O)[C@H](C)OC(=O)[C@@H](C(C)C)NC(=O)[C@@H](C(C)C)OC(=O)[C@H](C(C)C)NC(=O)[C@H](C)OC(=O)[C@@H](C(C)C)NC(=O)[C@@H](C(C)C)OC(=O)[C@H](C(C)C)NC(=O)[C@H](C)OC(=O)[C@@H](C(C)C)NC(=O)[C@@H](C(C)C)OC1=O" . Value?
12.5

Which CC50 at 24 h is listed for "CC1=CC[C@@H](C(C)(C)O)CC1" ?
1060

Request the reported CC50 at 24 h associated with C=C1CC/C=C(\C)CC[C@@H]2[C@@H]1CC2(C)C [(-)-Trans-Caryophyllene]
1840

What value of CC50 at 24 h has been reported for the following compound? "C[C@H]1O[C@@H](O[C@H]2[C@@H](O)C[C@H](O[C@H]3[C@@H](O)C[C@H](O[C@H]4CC[C@@]5(C)[C@H](CC[C@@H]6[C@@H]5CC[C@]5(C)[C@@H](C7=CC(=O)OC7)CC[C@]65O)C4)O[C@@H]3C)O[C@@H]2C)C[C@H](O)[C@@H]1O"
0.0069

Sample "CC1=CCC(=C(C)C)CC1" — what was its CC50 at 24 h?
69000
